assay: Mouse blood levels after single intramuscular injection
Assay type: in vivo, mice
run-parameters: 20 mg/kg im, 90 minutes, read-out: Mouse Blood Level
Protocol: The absorption of some of the preferred compounds were determined in mice following a single intramuscular injection of the test compound (dissolved in 0.1M phosphate buffer; pH 7) at a dosage of 10, 20 or 40 mg/kg. Blood samples were collected from the orbital sinuses into heparinized capillary tubes and assayed in Nutrient Agar (pH 6.6) using E. coli Ess-22-31 as the test organism. […]
quantity-measured: concentration at 1.5 h (ng/mL)
Report the value in ng/mL with no unit label.

### Prompt Write down concentration at 1.5 h measured for item CO/N=C(\C(=O)NC1C(=O)N2C(C(=O)[O-])=C(C[n+]3ccsc3SC)CS[C@H]12)c1csc(N)n1 (some centres unmarked) [Example 3]
### Response 9500

====

Here the recorded concentration at 40 min is given for each entry.
assay: Mouse blood levels after single intramuscular injection
Format: in vivo, mice
run-parameters: 20 mg/kg im, 40 minutes, read-out: Mouse Blood Level
Report the value in ng/mL with no unit label.

In the examples that follow, each entry is paired with its recorded concentration at 40 min.
CSc1scc[n+]1CC1=C(C(=O)[O-])N2C(=O)C(NC(=O)/C(=N\OC3(C(=O)O)CCC3)c3csc(N)n3)[C@H]2SC1 (stereo partly drawn)    5700
CO/N=C(\C(=O)NC1C(=O)N2C(C(=O)[O-])=C(C[n+]3ccsc3SC)CS[C@H]12)c1csc(N)n1 (stereo partly drawn)    17000

# context switch: different compound, same concentration at 40 min
### Prompt Write down concentration at 40 min measured for item CSc1scc[n+]1CC1=C(C(=O)[O-])N2C(=O)C(NC(=O)/C(=N\OC(C)(C)C(=O)O)c3csc(N)n3)[C@H]2SC1 (stereo partly drawn)
### Response 9400

====

System: Penicillinsensitive S. aureus
assay: MIC, two-fold serial agar dilution in Mueller-Hinton agar, group (G+)-Ia
Type: cell-based
run-parameters: Staphylococcus aureus; (G+)-Ia, penicillin-sensitive S. aureus (5 strains); read-out: Geometric Mean of MIC
quantity-measured: MIC
Give the figure together with its unit, number first.

In the examples that follow, each entry is paired with its recorded MIC.
Cc1csc[n+]1CC1=C(C(=O)[O-])N2C(=O)C(NC(=O)/C(=N\OC(C)(C)C(=O)O)c3csc(N)n3)C2SC1 (stereo not drawn)    7.2 µg/mL
Cc1c(CCO)sc[n+]1CC1=C(C(=O)[O-])N2C(=O)C(NC(=O)/C(=N\OC(C)(C)C(=O)O)c3csc(N)n3)C2SC1 (stereo not drawn)    8.3 µg/mL
Cc1scc[n+]1CC1=C(C(=O)[O-])N2C(=O)C(NC(=O)/C(=N\OC3(C(=O)O)CCC3)c3csc(N)n3)[C@H]2SC1 (stereo partly drawn)    4.2 µg/mL
CSc1scc[n+]1CC1=C(C(=O)[O-])N2C(=O)C(NC(=O)/C(=N\OC(C)(C)C(=O)O)c3csc(N)n3)[C@H]2SC1 (stereo partly drawn)    1.2 µg/mL
CSc1scc[n+]1CC1=C(C(=O)[O-])N2C(=O)C(NC(=O)/C(=N\OC3(C(=O)O)CCC3)c3csc(N)n3)[C@H]2SC1 (stereo partly drawn)    0.92 µg/mL

# context switch: different compound, same MIC
### Prompt Write down MIC measured for item CCO/N=C(\C(=O)NC1C(=O)N2C(C(=O)[O-])=C(C[n+]3ccsc3SC)CS[C@H]12)c1csc(N)n1 (stereo partly drawn)
### Response 0.35 µg/mL
